Source of measurements: patent US20250277022A1

SUBJECT OF TEST: T1, human TSLP (human, UniProt Q969D9 29-159)
T1 construct: used biotinylated in some assays; also called hTSLP; recombinant human TSLP
METHOD NOTES: ELISA, plate coated with human TSLP, test antibodies as human IgG1
READOUT LABEL: EC50 (read off the curve)

Which EC50 (read off the curve) is reported for this binder? TSLP-0207 (antibody, V domains shown) VH: QVQLVQSGAEVKKPGSSVKVSCKASGFTFGSYGISWVRQAPGQGLEWLGVIVPLVGVTIYAEKFQGRVTITADTSTSTAYMELSSLRSEDTAVYYCARGQEYFYWYFDLWGQGTLVTVSS VL: QSALTQPPSASGSPGQSVTISCTGTSSDIGGYNRVSWYQQHPGKAPKLMIYEFNKRPSGVPDRFSGSKSGNTASLTVSGLQAEDEADYYCSSYAGTDIFVLFGGGTKLTVL
~0.05 µg/mL
